# targetUnderTest: T1, purified recombinant MHC II protein, allele DRB1*0401 (human)
# T1 construct: bought from Benaroya Research Institute; also called DR4; MHC-II DR molecule
# experimentDescription: MHC II competition binding assay;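 also: Peptide–MHC II complexes pulled from equilibrium mixtures onto ELISA plates carrying a conformation-specific anti-HLA-DR antibody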
measuredMetric: IC50 (µM)
The response must be a number in µM with no trailing unit.

Record excerpt, results attached:
[[record]]
binder = "GVDFFMNIGTPVKAISSGKIV [cluster 2 wild-type (C2WT) epitope peptide]"
assayresult = 13.7

[[record]]
binder = "GVDFFMNEGTPVKAISSGKIV (synthetic mutated peptide of the lysostaphin catalytic domain; also called I41E) [cluster 2 peptide with Ile41Glu]"
assayresult = 3.48


So, GVDFFMNIGTPVHAISSGKIV (synthetic mutated peptide of the lysostaphin catalytic domain; also called K46H) [cluster 2 peptide with Lys46His] ? Its IC50 was 1.65
